# Experimental System: isomerase (Mus musculus, UniProt Q91ZQ5)
# Construct: The recovery of 11-cis-retinal after bleaching can be used to estimate the activity of isomerase in vivo; from tissue; host or cells: eyes of living mice (CD-1; Balb/c also named)
# Sequence (Q91ZQ5 whole entry): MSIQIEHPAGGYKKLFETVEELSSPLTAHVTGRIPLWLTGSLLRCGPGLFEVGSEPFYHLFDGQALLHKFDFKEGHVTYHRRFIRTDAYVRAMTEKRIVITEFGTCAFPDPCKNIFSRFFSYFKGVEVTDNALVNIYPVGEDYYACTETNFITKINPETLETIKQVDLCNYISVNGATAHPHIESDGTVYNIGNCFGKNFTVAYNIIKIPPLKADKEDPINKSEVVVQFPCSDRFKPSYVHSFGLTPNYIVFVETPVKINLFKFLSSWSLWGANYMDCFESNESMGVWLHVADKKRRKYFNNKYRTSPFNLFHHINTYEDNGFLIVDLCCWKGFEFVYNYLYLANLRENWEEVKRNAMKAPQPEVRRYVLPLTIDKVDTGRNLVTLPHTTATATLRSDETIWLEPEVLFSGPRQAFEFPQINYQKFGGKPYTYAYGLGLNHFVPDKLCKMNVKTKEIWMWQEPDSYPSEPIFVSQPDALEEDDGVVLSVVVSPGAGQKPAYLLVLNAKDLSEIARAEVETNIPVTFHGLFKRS
# Test Details: In vivo murine isomerase assay
# Design: species or system mice
# Condition Details: mouse, po, 4 h; read-out: % Inibition 1 mg/kg, 4 h
Observation Type: inhibition in vivo at 1 mg/kg (%)
Give the value, in units of %, as a plain number.

Asked: Input [2H]C([2H])(N)CC(O)c1cccc(C#CC2CCCCC2)c1 (stereo not drawn) [Example 123] , output reported inhibition in vivo at 1 mg/kg.
Given back: 91.4

Asked: Input CCCCCNc1cccc(C(O)CCN)c1 (stereo not drawn) [Example 13] , output reported inhibition in vivo at 1 mg/kg.
Given back: 1.98

Asked: Input [2H]C1([2H])C([2H])([2H])C([2H])([2H])C([2H])(C(=O)Nc2cccc(C(O)CCN)c2)C([2H])([2H])C1([2H])[2H] (stereo not drawn) [Example 93] , output reported inhibition in vivo at 1 mg/kg.
Given back: -0.53

Asked: Input NCCC(O)c1cccc(NC(=O)C2CCCCC2)c1 (stereo not drawn) [Example 15] , output reported inhibition in vivo at 1 mg/kg.
Given back: -0.003

Asked: Input [2H]C1(CNc2cccc(C(O)CCN)c2)CCCCC1 (stereo not drawn) [Example 91] , output reported inhibition in vivo at 1 mg/kg.
Given back: 95.5

Asked: Input CCC(CC)CNc1cccc(CCCN)c1 [Example 33] , output reported inhibition in vivo at 1 mg/kg.
Given back: 4.32

Asked: Input NCCC(=O)c1cccc(NCCCc2ccccc2)c1 [Example 60] , output reported inhibition in vivo at 1 mg/kg.
Given back: -1.33

Asked: Input COc1ccccc1CNc1cccc(C(=O)CCN)c1 [Example 48] , output reported inhibition in vivo at 1 mg/kg.
Given back: 0.21

Asked: Input NCCC(O)c1cccc(NS(=O)(=O)c2ccccc2)c1 (stereo not drawn) [Example 101] , output reported inhibition in vivo at 1 mg/kg.
Given back: 1.82

Asked: Input NCCC(O)c1cccc(NCCc2ccccc2)c1 (stereo not drawn) [Example 49] , output reported inhibition in vivo at 1 mg/kg.
Given back: 4.54
